Origin of measurements: patent US9669014B2

Experiment: Distribution in tissues of nontransgenic mice after injection
Format: in vivo, mouse
Details: mouse, serum, other: injection; 10 mg/kg injection, cyclodextrin carrier, 2 hr; read-out: Serum
Experimental: The blood brain barrier permeability of GSK3B-II was determined in nontransgenic mice. […] The peak and sustained concentrations found in the spinal cord and brain indicate that the 20 mg/kg dose puts the drug into the inhibitory range found in the cellular assays. We also tested compound NUCC-434 for distribution in non-transgenic mice. […]
readoutLabel: concentration at 2 h (nM)
Numbers only, in nM.

(Q) Please give the measured concentration at 2 h for this compound: `COc1ccc(CSc2nnc(-c3ccncc3)o2)cc1`
(A) 153

----------
Test: Distribution in tissues of nontransgenic mice after injection
Format: in vivo, mouse
Settings: mouse, serum, other: injection; 10 mg/kg injection, cyclodextrin carrier, 4 hr; read-out: Serum
readoutLabel: concentration at 4 h (nM)
Answers are plain numbers, in nM.

(Q) Please give the measured concentration at 4 h for this molecule: COc1ccc(CSc2nnc(-c3ccncc3)o2)cc1 [NUCC-434]
(A) 334

----------
Assay: Distribution in tissues of nontransgenic mice after injection
Type: in vivo, mouse
Conditions: mouse, serum, other: injection; 10 mg/kg injection, cyclodextrin carrier, 24 hr; read-out: Serum
readoutLabel: concentration at 24 h (nM)
One number for each entry, in nM.

(Q) Please give the measured concentration at 24 h for this compound: `COc1ccc(CSc2nnc(-c3ccncc3)o2)cc1`
(A) 123

----------
System: G93A-SOD1 expression
Assay: SOD1 protein expression in cultured fibroblasts from G93A-SOD1 mice (ELISA)
Type: cell-based, mouse
Conditions: Mus musculus, Fibroblast, 48 h; 10 μM compound; Table 5; read-out: Relative SOD1 Expression in Presence of Compound (10 μM)
I'd be grateful if you could share measured activity at 10 µM for these entries.
Numbers only, in %.

>>> val("CSc1nnc(-c2ccnc(Nc3ccccc3)c2)o1")
106
>>> val("c1ccc(CSc2nnc(-c3ccncc3)o2)cc1")
133
>>> val("Cc1cc(-c2nnc(SCc3ccc(F)cc3)o2)ccn1")
95

Attention now turns to another entry.
(Q) Please give the measured activity at 10 µM for this molecule: `Clc1cccc(CSc2nnc(-c3ccncc3)o2)c1`
(A) 95.9

----------
Test: Distribution in tissues of nontransgenic mice after injection
Type: in vivo, mouse
Details: mouse, brain, other: injection; 10 mg/kg injection, cyclodextrin carrier, 4 hr; read-out: Brain
readoutLabel: concentration at 4 h (nM)
Answers are plain numbers, in nM.

(Q) Please give the measured concentration at 4 h for this molecule: `COc1ccc(CSc2nnc(-c3ccncc3)o2)cc1`
(A) 47

----------
Experiment: Distribution in tissues of nontransgenic mice after injection
Type: in vivo, mouse
Conditions: mouse, spinal cord, other: injection; 10 mg/kg injection, cyclodextrin carrier, 4 hr; read-out: Spinal Cord
readoutLabel: concentration at 4 h (nM)
Numbers only, in nM.

(Q) Please give the measured concentration at 4 h for this molecule: `COc1ccc(CSc2nnc(-c3ccncc3)o2)cc1`
(A) 162

----------
Assay: Solubility in dosing vehicle
Assay type: physicochemical
Settings: aqueous with cosolvent or surfactant or cyclodextrin; Sulfo-butylether beta-cyclodextrin (Captisol) in water; read-out: Solubility in water with cyclodextrin carrier
Method: We also tested compound NUCC-434 for distribution in non-transgenic mice. […] While there are a multitude of methods for improving aqueous solubility of drugs (32) we chose a relatively simple route using a cyclodextrin based carrier (Sulfo-butylether beta-cyclodextrin, Captisol) to solubilize the drug in aqueous solution. Using the cyclodextrin carrier, we were able to solubilize NUCC-434 to 2 mg/mL in water and deliver 10 mg/kg to nontransgenic mice for pharmacokinetics. […]
readoutLabel: solubility (µg/mL)
One number for each entry, in µg/mL.

(Q) Please give the measured solubility for this compound: `COc1ccc(CSc2nnc(-c3ccncc3)o2)cc1`
(A) 2000

----------
System: G93A-SOD1 expression
Assay: SOD1 protein expression in cultured fibroblasts from G93A-SOD1 mice (ELISA)
Assay type: cell-based, mouse
Conditions: Mus musculus, Fibroblast, 48 h; 10 μM compound; Table 5; read-out: Relative SOD1 Expression in Presence of Compound (10 μM)
I'd be grateful if you could share measured activity at 10 µM for these entries.
Answers are plain numbers, in %.

// worked examples, activity at 10 µM included
>>> val("Fc1ccc(CSc2nnc(-c3ccncc3)o2)cc1")
86.3
>>> val("O=[N+]([O-])c1ccc(CSc2nnc(-c3ccncc3)o2)cc1")
102
>>> val("CSc1nnc(-c2ccnc(NCc3ccccc3)c2)o1")
146
>>> val("N#Cc1ccc(-c2ccc(CSc3nnc(-c4ccc5c(c4)OCO5)o3)cc2)cc1")
114
>>> val("c1cncc(CSc2nnc(-c3ccncc3)o2)c1")
112
>>> val("Cn1c(SCc2ccc(Br)cc2)nnc1-c1ccncc1")
103
>>> val("O=[N+]([O-])c1cccc(CSc2nnc(-c3ccncc3)o2)c1")
117
>>> val("COc1cccc(CSc2nnc(-c3ccncc3)o2)c1")
49.9

For every listed record, write down its activity at 10 µM.
1. Ic1ccc(CSc2nnc(-c3ccncc3)o2)cc1
2. Brc1ccc(CSc2nnc(-c3ccncc3)o2)cc1
3. Clc1ccc(CSc2nnc(-c3ccncc3)o2)cc1
4. CSc1nnc(-c2ccnc(NC3CCOCC3)c2)o1
5. COc1ccc(CSc2nnc(-c3ccncc3)o2)cc1
6. FC(F)(F)c1ccc(CSc2nnc(-c3ccncc3)o2)cc1
7. CSc1nnc(-c2ccncc2-c2ccc(F)cc2)o1

(A)
70.2
103
123
127
47.4
158
94.9

----------
Test: Distribution in tissues of nontransgenic mice after injection
Format: in vivo, mouse
Conditions: mouse, brain, other: injection; 10 mg/kg injection, cyclodextrin carrier, 2 hr; read-out: Brain
readoutLabel: concentration at 2 h
A bare number is not enough; add the unit after it.

(Q) Please give the measured concentration at 2 h for this compound: COc1ccc(CSc2nnc(-c3ccncc3)o2)cc1 [NUCC-434]
(A) 29 nM

----------
Assay: Distribution in tissues of nontransgenic mice after injection
Type: in vivo, mouse
Settings: mouse, spinal cord, other: injection; 10 mg/kg injection, cyclodextrin carrier, 2 hr; read-out: Spinal Cord
readoutLabel: concentration at 2 h (nM)
Give bare numbers, in nM.

(Q) Please give the measured concentration at 2 h for this molecule: `COc1ccc(CSc2nnc(-c3ccncc3)o2)cc1`
(A) 57

----------
Tested on: G93A-SOD1 expression
Assay: SOD1 protein expression in cultured fibroblasts from G93A-SOD1 mice (ELISA)
Format: cell-based, mouse
Conditions: Mus musculus, Fibroblast, 48 h; 10 μM compound; Table 5; read-out: Relative SOD1 Expression in Presence of Compound (10 μM)
Threshold 90%: activity at 10 µM strictly smaller gives class 1, otherwise class 0.

These recorded examples may help you get a feel for the data.
>>> answerlabel("O=[N+]([O-])c1ccccc1CSc1nnc(-c2ccncc2)o1")
"class 0"
>>> answerlabel("Fc1cccc(CSc2nnc(-c3ccncc3)o2)c1")
"class 0"

(Q) Given the entry `Cc1ccc(CSc2nnc(-c3ccncc3)o2)cc1` , would its reported activity at 10 µM be below 90%?
(A) class 0

(Q) Do the same for `Brc1ccc(CSc2nnc(-c3cccnc3)o2)cc1` please
(A) class 1

----------
I'd be grateful if you could share measured activity at 10 µM for these entries.
Tested on: G93A-SOD1 expression
Test: SOD1 protein expression in cultured fibroblasts from G93A-SOD1 mice (ELISA)
Type: cell-based, mouse
Conditions: Mus musculus, Fibroblast, 48 h; 10 μM compound; Table 5; read-out: Relative SOD1 Expression in Presence of Compound (10 μM)
One number for each entry, in %.

// worked examples, activity at 10 µM included
>>> val("c1cc(CSc2nnc(-c3ccncc3)o2)ccn1 [NUCC-437]")
90.3
>>> val("O=c1c(C2=NC3C=CC=CC3N2)coc2ccc(Cl)cc12 (stereo not drawn) [NUCC-0000406]")
89.9

(Q) Please give the measured activity at 10 µM for this compound: Brc1cccc(CSc2nnc(-c3ccncc3)o2)c1 [NUCC-318]
(A) 90.3
